src = ChEMBL document CHEMBL6178021

Test: Solubility of the compound in potassium phosphate buffer at pH 7.4 by UV-vis spectroscopy
Details: buffer
Is solubility at least 90 µM? Then Yes. If not, No.

// query Is solubility for COC(=O)[C@H]1CC[C@H](N/C=C2\N=C(c3ccc[nH]3)C3=C2CCCC3)CC1 at or above 90 µM?
// result Yes

// query Is solubility for CCC1=C(CC)/C(=C/NC2CCCCC2)N=C1c1ccc(Cc2ccc(OC)cc2)[nH]1 at or above 90 µM?
// result No

// query Is solubility for [2H]C([2H])(C)c1ccc(C2=N/C(=C\NC3CCCCCC3)C(C)=C2C)[nH]1 at or above 90 µM?
// result No

// query Is solubility for CCC1=C(CC)/C(=C/NC23C[C@H]4C[C@@H](C2)C[C@@H](C3)C4)N=C1c1cc2cc(OC)ccc2[nH]1 at or above 90 µM?
// result No

// query Is solubility for COC1=C(OC)/C(=C/NC2CCCCC2)N=C1c1ccc[nH]1 at or above 90 µM?
// result Yes

// query Is solubility for CCC1=C(CC)/C(=C/NC2CCCCCCC2)N=C1c1ccc(Cc2ccc(OC)cc2)[nH]1 at or above 90 µM?
// result No

// query Is solubility for CCC1=C(CC)/C(=C/NC2CCCCC2)N=C1c1ccc[nH]1 at or above 90 µM?
// result Yes

// query Is solubility for CCc1ccc(C2=N/C(=C\NC3CCCCC3)C3=C2CCCC3)[nH]1 at or above 90 µM?
// result No

// query Is solubility for CCc1ccc(C2=N/C(=C\NC3CCCCCC3)C(C)=C2C)[nH]1 at or above 90 µM?
// result Yes

* * *

Tested on: MDR1 (human)
Assay: Apparent permeability across apical to basolateral side in MDCK transfected with human MDR1 cells incubated for 1 hr by LC-MS analysis
Conditions: dog, MDCK-MDR1
assay_endpoint: Papp A→B at 1 h (×10⁻⁶ cm/s)
Quick note: give the figure in ×10⁻⁶ cm/s, leave out the unit.

Check out these entries, answers already filled in.
INSERT INTO assay_data (smiles_notation, value) VALUES
  ('CC1=C(C)/C(=C/NC2CCCCC2)N=C1c1ccc(C)[nH]1', 0.053),
  ('CCC1=C(CC)/C(=C/NC2CCCCCCC2)N=C1c1ccc(-c2ccccc2)[nH]1', 0.004),
  ('CCC1=C(CC)/C(=C/NC2CCCCCCC2)N=C1c1ccc(Cl)[nH]1', 0.28),
  ('CCC1=C(CC)/C(=C/NC2CCCCCCC2)N=C1c1ccc(Cc2ccc(OC)cc2)[nH]1', 0.074),
  ('CCC1=C(C)/C(=C/NC2CCCCCCC2)N=C1c1ccc(C)[nH]1', 0.063);

// query Which Papp A→B at 1 h value is on record for C(/NC1CCCCC1)=C1/N=C(c2ccc[nH]2)C2=C1OCCO2 ?
// result 0.33

// query Which Papp A→B at 1 h value is on record for CCC1=C(CC)/C(=C/NC2CCCCCCC2)N=C1c1ccc(Br)[nH]1 ?
// result 0.006

// query Which Papp A→B at 1 h value is on record for CCC1=C(CC)/C(=C/N[C@H]2CC[C@H](C(=O)OC)CC2)N=C1c1ccc[nH]1 ?
// result 0.088

// query Which Papp A→B at 1 h value is on record for COc1ccc(Cc2ccc(C3=N/C(=C\NC4CCCCC4)C4=C3OCCO4)[nH]2)cc1 ?
// result 0.002

// query Which Papp A→B at 1 h value is on record for CCC1=C(CC)/C(=C/NC2CCCCC2)N=C1c1ccc[nH]1 ?
// result 0.22
